Reference source for all entries: patent KR20220054080A

tested_on: SARS-CoV-2 spike protein on live SARS-CoV-2 virus (SARS-CoV-2, UniProt P0DTC2 14-1273)
assay_comment: cell-based or functional assay
Recorded IC50, live SARS-CoV-2 미세중화분석, Vero 세포, 72시간 for the following binders

// IC50, live SARS-CoV-2 미세중화분석, Vero 세포, 72시간 value for SA4114 (antibody, V domains shown) VH: QVQLVESGGTLVQPGRSLRLSCAASGFTFSSYAMHWVRQAPGKGLEWVAVISYDGSNKYYADSVKGRFTISRDNSKNTLYLQMNSLRAEDTAVYYCARRGHYYDSSGFLYWGQGTLVTVSS VL: DIQMTQSPSSLSASVGDRVTITCRAGQSIDNYLNWYQQKPGKAPKLLIYAASTLHSGVPSRFSGSGSGTDFTLTISSLQPDDFATYYCQQSYSIPRTFGQGTKLEIK : 12.8 nM

// IC50, live SARS-CoV-2 미세중화분석, Vero 세포, 72시간 value for SA3779 (antibody, V domains shown) VH: QVQLVESGGGVVQPGRSLRLSCAASGFTFSSYAMHWVRQAPGKGLEWVAVISYDGSNKYYADSAKGRFTISRDNSKNTLYLQMNSLRAEDTAVYYCARRGHYYDSSGYLYWGHGTLITVSS VL: DIQMTQSPSSLSASVGDRVTITCRASQRIATYLHWYQQKPGRAPKLLIYAASSLQTGVPSRFSGSGSGTDFTLTINSLQPEDFATYYCQQSYAIPYTFGQGTKLEIK : 45.6 nM

// IC50, live SARS-CoV-2 미세중화분석, Vero 세포, 72시간 value for SA3827 (antibody, V domains shown) VH: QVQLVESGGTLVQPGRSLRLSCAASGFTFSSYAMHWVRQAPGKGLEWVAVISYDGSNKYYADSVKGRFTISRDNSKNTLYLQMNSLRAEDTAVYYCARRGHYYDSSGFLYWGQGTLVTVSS VL: DIQMTQSPSSLSASVGDRVTITCRASQSISTYLSWYQQKPGKAPKLLIYAASNLQSGVPSRFSASGSGTDFTLTISSLQPEDFATYYCQQSYNTPRTFGQGTKVEIK : 7.94 nM

// IC50, live SARS-CoV-2 미세중화분석, Vero 세포, 72시간 value for SA3755 (antibody, V domains shown) VH: QMQLVESGGGVVQPGGSLRLSCAASGFTFDDHTMHWVRQAPGKGLEWVSLISWDGGSTYYADSVKGRFTISRDNSKNSLYLQMNSLRAEDTAVYYCTRDASRRPGDGGYDFDVWGQGTQVTVSS VL: QAVVTQEPSLTVSPGGTVTLTCGSSTGTVTRGHWPYWFQQKPGQAPRTLIYDTDNKHSWTPARFSGSLLGGKAALTLSGAQPEDEADYYCLLSYSDSRVFGTGTKVTVL : 5.12 nM

// IC50, live SARS-CoV-2 미세중화분석, Vero 세포, 72시간 value for SA3838 (antibody, V domains shown) VH: QVQLVESGAEVKKPGASVRVSCKISGYIFTELSIHWVRQAPGKGLEWMGGFDPEEGKTIYAQKFQGRVTMTEDTSTDTAYMELSSLRSEDTAVYYCAKIGHLGDFWYWGQGTLITVSS VL: QSALTQPASVSGSPGQSITISCTGTTSDIGSYDYVSWYQQHPGKAPKLIIYGVTRRPSGVSNRFSGSKSGNTASLTISRLLTEDEAEYYCATYTSSATYVFGTGTKVTVL : 13.5 nM
